biological target: SARS-CoV1 Spike [change] (SARS-CoV-1, UniProt P59594 14-667); test: Octet BLI, IgG, monovalent
Hi there, I'd appreciate the recorded pKd for every entry that follows.
Answers are plain numbers, as −log10 of the molar value.

[
  {
    "binder": "A-20.3 (antibody, V domains shown) VH: QVQLVQSGGGVVQPGRSLRLSCAASGFTFDNFAMHWVRQAPGKGLEWVAVILYDGINDYYADSVKGRFTISRGNSKNTLSLQMNSLRAEDTAVYYCARAQNYYDRHGTLQLDAFDIWGQGTLVTVSS VL: AIQMTQSPSSLSASVGDRVTITCRASDGIRNDLGWYQQKPGKAPKLLIYEASSLQSGVPSRFSGSGSGTDFTLTISSLQPEDFATYYCLQNYNYPLTFGGGTKVEIK",
    "pKd": 8.45
  },
  {
    "binder": "A-21 (antibody, V domains shown) VH: EVQLVESGGGLVQPGGSLRLSCAASGFTFSRYWMHWVRQAPGKGLVWVSRINSDGSSTTYADSVKGRFTISRDNAKNTLYLQMNSLRAEDTAVYYCARELYYYDSRGAEEGEGWFDPWGQGTLVTVSS VL: QSVLTQPPSVSGAPGQRVTISCTGISSNIGAGYDVHWYQQLPGTAPKLLIYGNSNRPSGVPDRFSASKSGTSAPLAITGLQAEDEADYYCQSSDRSLSGSVFGTGTKVTVL",
    "pKd": 8.04
  },
  {
    "binder": "A-20.2 (antibody, V domains shown) VH: QVQLVQSGGGVVQPGRSLRLSCAASGFTFDNFAMHWVRQAPGKGLEWVAVIEYDGINKYYADSVKGRFTISRGNSKNTLSLQMNSLRAEDTAVYYCARAQNYYDRYGTLQLDAFDIWGQGTLVTVSS VL: AIQMTQSPSSLSASVGDRVTITCRASQGIRNDLGWYQQKPGKAPKLLIYDASSLQSGVPSRFSGSGSGTDFTLTISSLQPEDFATYYCLQDYNYPLTFGGGTKVEIK",
    "pKd": 8.76
  },
  {
    "binder": "A-21.1 (antibody, V domains shown) VH: EVQLVESGGGLVQPGGSLRLSCAASGFTFRRYWMHWVRQAPGKGLVWVSRINSDGSSTTYADSVKGRFTISRDNAKNTLYLQMNSLRAEDTAVYYCARELYYYDSRGFEEGEGWFDPWGQGTLVTVSS VL: QSVLTQPPSVSGAPGQRVTISCTGISSNIGAGYDVHWYQQLPGTAPKLLIYGNSNRPSGVPDRFSASKSGTSAPLAITGLQAEDEADYYCQSSDRSLSGSVFGTGTKVTVL",
    "pKd": 8.18
  }
]

Lab note: A-20 (antibody, V domains shown) VH: QVQLVESGGGVVQPGRSLRLSCAASGFTFSNFAMHWVRQAPGKGLEWVAVILYDGINKYYADSVKGRFTISRGNSKNTLSLQMNSLRAEDTAVYYCARAQNYYDRSGTLQLDAFDIWGQGTLVTVSS VL: AIQMTQSPSSLSASVGDRVTITCRASQGIRNDLGWYQQKPGKAPKLLIYAASSLQSGVPSRFSGSGSGTDFTLTISSLQPEDFATYYCLQDYNYPLTFGGGTKVEIK gave pKd of 7.66
